Every entry's value here was drawn from patent US6420518.

- target-entity: T1, IGFBP-1 (UniProt P08833 26-259)
- T1 construct: in kinetics immobilised on a CM chip by EDC/NHS; biotinylated in the phage selection
- T1 sequence (looked up): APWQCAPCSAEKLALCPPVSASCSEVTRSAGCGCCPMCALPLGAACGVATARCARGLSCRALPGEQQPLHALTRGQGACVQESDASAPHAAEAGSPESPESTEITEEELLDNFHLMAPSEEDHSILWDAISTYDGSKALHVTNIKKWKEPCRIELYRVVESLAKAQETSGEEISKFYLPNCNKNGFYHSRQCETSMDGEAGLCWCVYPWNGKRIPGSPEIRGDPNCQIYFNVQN
- measurement-description: ELISA inhibition of IGFBP-1 binding to IGF-I
Positions of bridges follow the written chain, without caps; N, C: chain ends. No end group written: not given here.
measurement-label: Fold potency reduction IC50(mut)/IC50(bp1-16)

// field: Fold potency reduction IC50(mut)/IC50(bp1-16); key: CRAGALQWLCEKYF (disulfide 1-10, also called P5A variant of bp1-16) [bp1-30] ; value = 1.5 fold

The binder listed as CRAGPRQWLCEKYF (disulfide 1-10, also called L6R variant of bp1-16) [bp1-32] has a reported Fold potency reduction IC50(mut)/IC50(bp1-16) of > 1000 fold

Fold potency reduction IC50(mut)/IC50(bp1-16) in this record for CRAGPLQWRCEKYF (disulfide 1-10, also called L9R variant of bp1-16) [bp1-26] : > 570 fold

Lab book: Fold potency reduction IC50(mut)/IC50(bp1-16) of CRAGNLQWLCEKYF (disulfide 1-10, also called P5N variant of bp1-16) [bp1-34] noted as 3.1 fold
